The reported numbers originate from patent US8173654B2.

# assayed_system: UniProt P08581
# experiment_notes: Cell based ELISA assay for HGF stimulated c-Met phosphorylation in S114 cells
# Set-up: expressed in transfected cells; host or cells: S114 (murine NIH 3T3 derived)
# protocol_conditions: read-out: c-Met Cell ELISA IC-50
# Sequence (P08581 25-1390): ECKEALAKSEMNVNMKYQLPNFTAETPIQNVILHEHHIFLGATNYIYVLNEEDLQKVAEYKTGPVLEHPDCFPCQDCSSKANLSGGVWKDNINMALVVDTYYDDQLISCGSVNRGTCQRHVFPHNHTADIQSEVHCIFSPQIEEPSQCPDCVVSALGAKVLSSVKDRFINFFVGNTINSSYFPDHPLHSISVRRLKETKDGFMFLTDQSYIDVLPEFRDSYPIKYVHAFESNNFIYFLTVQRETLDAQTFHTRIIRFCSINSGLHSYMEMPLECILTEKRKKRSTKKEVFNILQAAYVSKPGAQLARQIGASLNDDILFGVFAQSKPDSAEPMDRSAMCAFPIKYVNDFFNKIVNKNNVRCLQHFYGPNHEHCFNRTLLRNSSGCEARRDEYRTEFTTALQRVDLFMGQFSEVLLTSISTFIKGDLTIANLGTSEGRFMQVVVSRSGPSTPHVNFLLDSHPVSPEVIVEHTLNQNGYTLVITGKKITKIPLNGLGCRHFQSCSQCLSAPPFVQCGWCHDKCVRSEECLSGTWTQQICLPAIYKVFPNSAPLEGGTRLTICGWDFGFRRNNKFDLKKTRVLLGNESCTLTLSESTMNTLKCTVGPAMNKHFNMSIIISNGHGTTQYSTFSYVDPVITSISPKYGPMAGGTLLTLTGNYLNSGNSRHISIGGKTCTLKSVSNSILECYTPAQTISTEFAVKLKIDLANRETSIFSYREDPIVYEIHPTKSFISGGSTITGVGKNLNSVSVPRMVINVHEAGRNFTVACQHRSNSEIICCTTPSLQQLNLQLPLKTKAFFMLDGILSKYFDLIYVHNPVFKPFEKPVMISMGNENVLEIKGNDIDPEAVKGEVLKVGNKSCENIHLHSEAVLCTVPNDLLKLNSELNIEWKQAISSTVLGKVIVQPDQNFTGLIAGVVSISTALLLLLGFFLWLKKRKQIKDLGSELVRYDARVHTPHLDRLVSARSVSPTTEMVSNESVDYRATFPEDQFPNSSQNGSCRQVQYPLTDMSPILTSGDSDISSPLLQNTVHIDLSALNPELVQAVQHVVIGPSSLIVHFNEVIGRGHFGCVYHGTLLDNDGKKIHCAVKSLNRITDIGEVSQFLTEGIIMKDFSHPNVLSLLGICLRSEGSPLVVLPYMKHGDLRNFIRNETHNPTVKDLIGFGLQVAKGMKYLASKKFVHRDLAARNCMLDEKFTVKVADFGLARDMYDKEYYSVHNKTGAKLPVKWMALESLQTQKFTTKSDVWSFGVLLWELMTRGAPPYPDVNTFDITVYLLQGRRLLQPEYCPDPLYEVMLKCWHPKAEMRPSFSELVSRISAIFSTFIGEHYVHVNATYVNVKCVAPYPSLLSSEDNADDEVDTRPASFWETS
Recorded IC50 values for a group of compounds are listed next.
Numeric only. Scale: nM

| compound | IC50 (nM) |
| --- | --- |
| Cc1cc(-c2ccc3nnc(Cc4ccc5ncccc5c4)n3n2)ccn1 [Example 87] | 4 |
| Clc1ccc(-c2ccc3nnc(Cc4ccc5ncccc5c4)n3n2)s1 [Example 77] | 2 |
| Cn1cc(-c2ccc3nnc(Cc4ccc5c(c4)CCO5)n3n2)cn1 [Example 62] | 270 |
| C#Cc1cc(-c2ccc3nnc(C(F)(F)c4ccc5ncccc5c4)n3n2)ccn1 [Example 100] | 140 |
| [O-][n+]1cccc2cc(Cc3nnc4ccc(-c5cn[nH]c5)nn34)ccc21 [Example 73] | 0.5 |
| c1cnc2ccc(Cc3nnc4ccc(-c5cc6ccccc6s5)nn34)cc2c1 [Example 72] | 0.2 |
| FC(F)(c1ccc2ncccc2c1)c1nnc2ccc(-c3ccncc3)nn12 [Example 60] | 12 |
| Cc1nc2ccc(Cc3nnc4ccc(-c5cccnc5)nn34)cc2s1 [Example 92] | 10 |

So for COc1ccc(Cc2nnc3ccc(-c4cccs4)nn23)cn1 [Example 31] , the logged IC50 turned out to be 2400

----------
# assayed_system: c-Met (Homo sapiens)
# experiment_notes: Delfia autophosphorylation kinase assay on the c-Met
# Type: biochemical
# Design: The purified His6 tagged cytoplasmic domain of c-Met was diluted to a concentration of 500 ng/ml; host or cells: Sf9 insect cells (baculovirus, pFastBacHTa)
# protocol_conditions: His6 tagged cytoplasmic domain of c-Met, 1 μM ATP; read-out: cMet Delfia autophos IC-50
# Sequence (P08581 956-1390 limits assumed): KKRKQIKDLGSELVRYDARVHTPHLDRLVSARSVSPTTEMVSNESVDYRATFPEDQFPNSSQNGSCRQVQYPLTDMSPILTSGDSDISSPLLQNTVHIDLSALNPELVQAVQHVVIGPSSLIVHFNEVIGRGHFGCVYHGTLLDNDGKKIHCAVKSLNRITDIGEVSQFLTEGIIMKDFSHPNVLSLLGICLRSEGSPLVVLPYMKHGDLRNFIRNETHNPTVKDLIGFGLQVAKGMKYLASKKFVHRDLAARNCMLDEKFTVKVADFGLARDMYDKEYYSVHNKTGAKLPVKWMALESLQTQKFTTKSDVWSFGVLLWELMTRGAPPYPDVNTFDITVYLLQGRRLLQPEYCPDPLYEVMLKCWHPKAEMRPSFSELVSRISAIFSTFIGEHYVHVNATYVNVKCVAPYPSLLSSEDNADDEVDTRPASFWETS
measured_property: IC50 (nM)
Numeric only. Scale: nM

| smiles_entry | assayed_system | IC50 [nM] |
| --- | --- | --- |
| CS(=O)(=O)N1CCN(C(=O)c2ccc(-c3ccc4nnc(Cc5ccc6ncccc6c5)n4n3)s2)CC1 | c-Met (Homo sapiens) | 0.9 |

So for c1csc(-c2ccc3nnc(Cc4ccc5ncccc5c4)n3n2)c1 , the logged IC50 turned out to be 2

So for CCNC(=O)Nc1ccc(Cc2nnc3ccc(-c4cccs4)nn23)cc1 , the logged IC50 turned out to be 570

So for Brc1cn(-c2ccc3nnc(Cc4ccc5ncccc5c4)n3n2)cn1 , the logged IC50 turned out to be 2

----------
# assayed_system: c-Met (Homo sapiens)
# experiment_notes: Cell based ELISA assay for HGF stimulated c-Met phosphorylation in S114 cells
# Set-up: expressed in transfected cells; host or cells: S114 (murine NIH 3T3 derived)
# protocol_conditions: read-out: c-Met Cell ELISA IC-50
measured_property: IC50
# number then unit; no other words

Record excerpt, results attached:
| compound | IC50 |
| --- | --- |
| Cc1ccsc1-c1ccc2nnc(Cc3ccc4c(c3)CCO4)n2n1 [Example 23] | 113 nM |
| COc1ccc(Cc2nnc3ccc(-c4cccs4)nn23)cc1 [Example 25] | 483 nM |
| CN1CCN(C(=O)c2ccc(-c3ccc4nnc(C(F)(F)c5ccc6c(c5)CCO6)n4n3)s2)CC1 [Example 103] | 210 nM |

So for Clc1cc(-c2ccc3nnc(Cc4ccc5ncccc5c4)n3n2)ccn1 [Example 95] , the logged IC50 turned out to be 9 nM

So for Cc1nc2ccc(-c3ccc4nnc(Cc5ccc6ncccc6c5)n4n3)cc2[nH]1 [Example 79] , the logged IC50 turned out to be 3300 nM

----------
# assayed_system: c-Met (Homo sapiens)
# experiment_notes: Delfia autophosphorylation kinase assay on the c-Met
# Type: biochemical
# Parameters: The purified His6 tagged cytoplasmic domain of c-Met was diluted to a concentration of 500 ng/ml; host or cells: Sf9 insect cells (baculovirus, pFastBacHTa)
# protocol_conditions: His6 tagged cytoplasmic domain of c-Met, 1 μM ATP; read-out: cMet Delfia autophos IC-50
measured_property: IC50 (nM)
Numeric only. Scale: nM

| molecule | scale_unit | test_result |
| --- | --- | --- |
| O=[N+]([O-])c1ccc(Cc2nnc3ccc(-c4cccs4)nn23)cc1 | nM | 8210 |
| FC(F)(c1ccc2ncccc2c1)c1nnc2ccc(-c3ccnc(Cl)c3)nn12 [Example 100b] | nM | 2 |
| CN(C)c1nc2ccc(Cc3nnc4ccc(-c5cnn(C)c5)nn34)cc2s1 | nM | 30 |
| COc1ccc(Cc2nnc3ccc(-c4cccs4)nn23)cc1 | nM | 41 |

So for FC(F)(c1ccc2ncccc2c1)c1nnc2ccc(-c3cccs3)nn12 , the logged IC50 turned out to be 0.3

So for COc1ccc(Cn2cnc3ccc(Cc4nnc5ccc(-c6cccnc6)nn45)cc3c2=O)cc1 , the logged IC50 turned out to be 2

So for CC(=O)Nc1ccc(Cc2nnc3ccc(-c4cccs4)nn23)cc1 , the logged IC50 turned out to be 86

So for c1cnc2ccc(Cc3nnc4ccc(-c5cn[nH]c5)nn34)cc2c1 , the logged IC50 turned out to be 4

So for c1csc(-c2ccc3nnc(Cc4ccc5c(c4)OCO5)n3n2)c1 , the logged IC50 turned out to be 16

So for CN1CCN(C(=O)c2ccc(-c3ccc4nnc(C(F)(F)c5ccc6c(c5)CCO6)n4n3)s2)CC1 , the logged IC50 turned out to be 4

So for CC(C)N1CCN(C(=O)c2ccc(-c3ccc4nnc(Cc5ccc6ncccc6c5)n4n3)s2)CC1 , the logged IC50 turned out to be 1

So for Cn1cc(-c2ccc3nnc(Cc4ccc5c(c4)CCO5)n3n2)cn1 , the logged IC50 turned out to be 20

----------
# assayed_system: c-Met (Homo sapiens, UniProt P08581)
# experiment_notes: Delfia autophosphorylation kinase assay on the c-Met
# Format: biochemical
# Design: The purified His6 tagged cytoplasmic domain of c-Met was diluted to a concentration of 500 ng/ml; host or cells: Sf9 insect cells (baculovirus, pFastBacHTa)
# protocol_conditions: His6 tagged cytoplasmic domain of c-Met, 1 μM ATP; read-out: cMet Delfia autophos IC-50
Recorded pIC50 values for a group of compounds are listed next.
// returns pIC50 (minus log10 of molar concentration), number only

| compound | test_result |
| --- | --- |
| COc1ccc(C(F)(F)c2nnc3ccc(-c4cccs4)nn23)cc1 [Example 58] | 7.02 |
| Nc1nc2ccc(Cc3nnc4ccc(-c5cccs5)nn34)cc2o1 [Example 21] | 7.64 |
| c1cncc(-c2ccc3nnc(Cc4cccc5ncccc45)n3n2)c1 [Example 91] | 5.98 |
| Clc1ccc(-c2ccc3nnc(Cc4ccc5ncccc5c4)n3n2)s1 [Example 77] | 8.82 |

Next compound, please.
I looked up c1ccc(Cc2nnc3ccc(-c4cccs4)nn23)cc1 [Example 24] and its pIC50 for c-Met (Homo sapiens, UniProt P08581) was 5.75

----------
# assayed_system: UniProtKB P08581
# experiment_notes: Delfia autophosphorylation kinase assay on the c-Met
# Type: biochemical
# Design: The purified His6 tagged cytoplasmic domain of c-Met was diluted to a concentration of 500 ng/ml; host or cells: Sf9 insect cells (baculovirus, pFastBacHTa)
# protocol_conditions: His6 tagged cytoplasmic domain of c-Met, 1 μM ATP; read-out: cMet Delfia autophos IC-50
Recorded IC50 values for a group of compounds are listed next.
Numeric only. Scale: nM

Record excerpt, results attached:
| compound | scale_unit | IC50 |
| --- | --- | --- |
| c1cnc2ccc(Cc3nnc4ccc(-c5cnc6ccccc6c5)nn34)cc2c1 [Example 65] | nM | 0.3 |
| CS(=O)(=O)n1cc(-c2ccc3nnc(Cc4ccc5ncccc5c4)n3n2)cn1 [Example 15] | nM | 2 |
| CCCn1cc(-c2ccc3nnc(Cc4ccc5ncccc5c4)n3n2)cn1 [Example 9] | nM | 1.6 |
| CN1CCN(C(=O)c2ccc(-c3ccc4nnc(Cc5ccc6ncccc6c5)n4n3)s2)CC1 [Example 47] | nM | 0.4 |

Next compound, please.
So for Nc1nc2ccc(Cc3nnc4ccc(-c5cccs5)nn34)cc2s1 [Example 38] , the logged IC50 turned out to be 0.45

----------
# assayed_system: c-Met (Homo sapiens)
# experiment_notes: Cell based ELISA assay for HGF stimulated c-Met phosphorylation in S114 cells
# Design: expressed in transfected cells; host or cells: S114 (murine NIH 3T3 derived)
# protocol_conditions: read-out: c-Met Cell ELISA IC-50
Note that class boundaries on IC50 are bin 0 = under 8 nM, bin 1 = from 8 nM up to 100 nM, bin 2 = 100 nM and over

Please review the following examples before continuing.
| compound | assigned_label |
| --- | --- |
| FC(F)(c1ccc2ncccc2c1)c1nnc2ccc(-c3cnc4ccccc4c3)nn12 [Example 66] | bin 0 |
| Oc1ccc(Cc2nnc3ccc(-c4ccn[nH]4)nn23)cc1 [Example 5] | bin 2 |
| Oc1ccc(Cc2nnc3ccc(-c4cn[nH]c4)nn23)cc1 [Example 3] | bin 2 |
| Nc1nc2ccc(Cc3nnc4ccc(-c5cccs5)nn34)cc2s1 [Example 38] | bin 0 |
| c1cncc(-c2ccc3nnc(Cc4ccc5ncccc5c4)n3n2)c1 [Example 11] | bin 1 |
| CC(C)N1CCN(C(=O)c2ccc(-c3ccc4nnc(Cc5ccc6ncccc6c5)n4n3)s2)CC1 [Example 55] | bin 0 |

Problem: # bin label for CN(C)c1nc2ccc(Cc3nnc4ccc(-c5cnn(C)c5)nn34)cc2s1 [Example 94]
Solution: bin 2

Problem: # bin label for CCCn1cc(-c2ccc3nnc(Cc4ccc5ncccc5c4)n3n2)cn1 [Example 9]
Solution: bin 1

Problem: # bin label for c1csc(-c2ccc3nnc(Cc4ccc5c(c4)CCO5)n3n2)c1 [Example 22]
Solution: bin 1

Problem: # bin label for CS(=O)(=O)N1CCN(C(=O)c2ccc(-c3ccc4nnc(C(F)(F)c5ccc6ncccc6c5)n4n3)s2)CC1 [Example 98]
Solution: bin 0
